target: pooled human IgG
QUANTITY_NAME: Enzyme Activity Endpoint Assay: Fc (ng/µL)
Enter your answer as a number in ng/µL; do not include the unit.

Input line: # get_value(readout='Enzyme Activity Endpoint Assay: Fc', item= PRT-22 (protein) MANQEIRYSEVTPYHVTSVWTKGVTPPANFTQGEDVFHAPYVANQGWYDITKTFNGKDDLLCGAATAGNMLHWWFDQNKDQIERYLKEHPEKQKINFNGEQMFDVKEAIDTKNSQLDSKLFEYFKEKAFPYLSTKHLGVFPDHVIDMFINGYRLSLTNHGPTPVKEGSKDPRGGIFDAVFTRGDQSKLLTSRHDFKEKNLKEISDLIKKELTEGKALGLSHTYANVRINHVINLWGADFDSNGNLKAIYVTDSDSNASIGMKKYFVGVNSAGKVAISAKEIKEDNIGAQVLGLFTLSTGQDIWNQTN )
Output line: 116

Input line: # get_value(readout='Enzyme Activity Endpoint Assay: Fc', item= PRT-536 (protein) MANQEIRYSGDSEWANKKVWVYGITPAEEGAWLYSTYYLPWKKEYGWYDCNKRNPTADGMMCWAASASNLMHWWIAQNKRYIDLYGDRYKGPDKINFNGEQMFDVKEYIDPLDKPQESDIFQCFIDKSFADLSTKHEAGKGDEGINWFIHGIIPSYPAHGPTPVKLRYPYNPAGYFKDVFPRGDGVVLGGNNGDFKELGKERFNETIKDALANKKGIGLSIGPVNVRKSHVETMWGAEFDENGDVSYIYMADNNDRWGVGCIRLQIVYVEGATYTCYKTEIIPSDRPIPINRLVTVELGEEYWKQTNLEHHHHHH )
Output line: 0

Input line: # get_value(readout='Enzyme Activity Endpoint Assay: Fc', item= PRT-27 (protein) MANQEIRYSEVTPYHVTSVWTKGVTPPANFTQGEDVFHAPYVANQGWYDITKTFNGKDDLLCGAATAGNMLHWWFDQNKDQIKRYLEEHPEKQKINFNGEQMFDVKEAIDTKNHQTDSKLFEYFKEKAFPYLSTKHLGVFPDHVIDMFINGYRLSLTNHGPTPVKEGSKDPRGGIFDAVFTRGDQSKLLTSRHDFKEKNLKEISDLIKKELTEGKALGLSHTYANVRINHVINLWGADFDSNGNLEAIYVTDSDSNASIGMKKYFVGVNSAGKVAISAKEIKEDNIGAQVLGLFTLSTGQDSWNQTN )
Output line: 112

Input line: # get_value(readout='Enzyme Activity Endpoint Assay: Fc', item= PRT-20 (protein) MANQEIRYSEATPYHITSVWTKGVTPPANFTQGEDVFHAPYVPNQGWYDITKTFNGKDDLLCGAATAGNMLHWWFDQNKDQIERYLKEHPEKQKINFNGEQMFDVKEAIDTKDSQTDSKLFNYFKEKAFPYLSTKHLGVFPDHVLDMFINGYRLSLTNHGPTPVKEQSKDPRGGIFDAVFTRGDQSTLLTSRHDFKEKTLKEISDLIKKELQEGKALGISHTYANVRINHVINLWGADFNSEGNLEAIYVTDSDSNASIGMKKYYVGVNSAGKVAISAKEIEDDNIGAQVLGLFTLSTGKDIWEQTN )
Output line: 124
